- procedureText: MTD (NCI in vivo evaluation, Table 8)
- testConditions: mouse
Recorded MTD by entry

[
  {
    "smilesRepr": "CC[C@H](CO)Nc1nc(NCc2ccc(-c3cccc(C(F)(F)F)c3)cc2)c2ncn(C(C)C)c2n1",
    "MTD (mg/kg)": 100
  },
  {
    "smilesRepr": "CC(=O)N[C@H]1CC[C@H](Nc2nc(NCc3ccc(-c4ccccn4)cc3)c3ncn(C(C)C)c3n2)CC1",
    "MTD (mg/kg)": 6.3
  },
  {
    "smilesRepr": "CC[C@H](CO)Nc1nc(NCc2ccc(-c3ccccn3)cc2)c2ncn(C(C)C)c2n1",
    "MTD (mg/kg)": 100
  },
  {
    "smilesRepr": "CC[C@H](CO)Nc1nc(NCc2ccc(-c3ccccc3)cc2)c2ncn(C(C)C)c2n1",
    "MTD (mg/kg)": 100
  },
  {
    "smilesRepr": "CC(C)n1cnc2c(NCc3ccc(-c4ccccn4)cc3)nc(N[C@H]3CC[C@H](N)CC3)nc21",
    "MTD (mg/kg)": 6.3
  },
  {
    "smilesRepr": "CC(C)n1cnc2c(NCc3ccc(-c4ccsc4)cc3)nc(N[C@H]3CC[C@H](N)CC3)nc21",
    "MTD (mg/kg)": 3.1
  },
  {
    "smilesRepr": "CC(=O)N[C@H]1CC[C@H](Nc2nc(NCc3ccc(-c4ccsc4)cc3)c3ncn(C(C)C)c3n2)CC1",
    "MTD (mg/kg)": 200
  }
]
